The values you see were collected from ChEMBL document CHEMBL4385593.

Target: Phosphatidylinositol 4,5-bisphosphate 3-kinase catalytic subunit gamma isoform (Homo sapiens, UniProt P48736)
Sequence (P48736 whole entry, canonical isoform): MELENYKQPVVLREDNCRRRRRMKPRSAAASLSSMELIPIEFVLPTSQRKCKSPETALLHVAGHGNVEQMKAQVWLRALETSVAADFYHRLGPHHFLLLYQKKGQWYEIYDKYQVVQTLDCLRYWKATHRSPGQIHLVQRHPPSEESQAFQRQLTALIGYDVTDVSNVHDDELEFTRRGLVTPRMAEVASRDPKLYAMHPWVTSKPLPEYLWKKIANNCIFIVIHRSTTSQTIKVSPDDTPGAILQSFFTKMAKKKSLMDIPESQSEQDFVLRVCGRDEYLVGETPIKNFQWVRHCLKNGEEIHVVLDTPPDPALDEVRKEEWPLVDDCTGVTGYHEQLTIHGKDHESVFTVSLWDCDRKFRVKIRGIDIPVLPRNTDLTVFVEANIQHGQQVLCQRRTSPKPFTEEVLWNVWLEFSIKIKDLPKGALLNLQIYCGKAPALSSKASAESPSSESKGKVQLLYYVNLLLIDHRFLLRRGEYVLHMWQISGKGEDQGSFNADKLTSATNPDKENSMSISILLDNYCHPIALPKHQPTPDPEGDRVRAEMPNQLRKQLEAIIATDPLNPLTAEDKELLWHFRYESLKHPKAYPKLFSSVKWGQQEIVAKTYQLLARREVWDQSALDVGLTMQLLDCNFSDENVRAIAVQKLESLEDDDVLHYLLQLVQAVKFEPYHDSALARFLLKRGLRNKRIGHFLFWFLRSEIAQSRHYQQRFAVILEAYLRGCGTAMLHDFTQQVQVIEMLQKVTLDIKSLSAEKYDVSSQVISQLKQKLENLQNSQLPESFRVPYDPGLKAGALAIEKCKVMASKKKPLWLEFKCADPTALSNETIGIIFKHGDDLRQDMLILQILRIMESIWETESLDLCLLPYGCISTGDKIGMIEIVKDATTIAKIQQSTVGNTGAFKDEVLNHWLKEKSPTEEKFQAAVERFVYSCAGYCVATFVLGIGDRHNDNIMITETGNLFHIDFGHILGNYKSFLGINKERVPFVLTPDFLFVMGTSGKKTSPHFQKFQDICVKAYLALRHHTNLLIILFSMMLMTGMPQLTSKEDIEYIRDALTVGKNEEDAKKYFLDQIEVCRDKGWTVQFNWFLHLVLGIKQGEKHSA
Assay: Inhibition of His-tagged recombinant human full length PI3K p110gamma expressed in baculovirus expression system using lipid substrate incubated for 2 hrs by ADP-Glo assay
measurement.type: IC50 (µM)

Example results:
Sample `C[C@H](Nc1ncnc(N)c1C#N)C1=Nc2cccc(Cl)c2S(=O)(=O)N1c1ccccc1` — what was its IC50?
0.1

Any idea what IC50 was measured for `C[C@H](Nc1ncnc2[nH]cnc12)C1=Nc2cccc(Cl)c2S(=O)(=O)N1c1ccccc1` ?
0.156

1. C[C@@H](Nc1ncnc(N)c1C#N)C1=Nc2cccc(Cl)c2S(=O)(=O)N1c1ccccc1
2. C[C@@H](Nc1ncnc2[nH]cnc12)C1=Nc2cccc(Cl)c2S(=O)(=O)N1c1ccccc1
Param metric = IC50; output whichever of 1 , 2 has the minimum value. // output: label of the selected item
1

====

Biological target: PI3-kinase p110-delta/p85-alpha (Homo sapiens, UniProt O00329)
Sequence (P27986 whole entry): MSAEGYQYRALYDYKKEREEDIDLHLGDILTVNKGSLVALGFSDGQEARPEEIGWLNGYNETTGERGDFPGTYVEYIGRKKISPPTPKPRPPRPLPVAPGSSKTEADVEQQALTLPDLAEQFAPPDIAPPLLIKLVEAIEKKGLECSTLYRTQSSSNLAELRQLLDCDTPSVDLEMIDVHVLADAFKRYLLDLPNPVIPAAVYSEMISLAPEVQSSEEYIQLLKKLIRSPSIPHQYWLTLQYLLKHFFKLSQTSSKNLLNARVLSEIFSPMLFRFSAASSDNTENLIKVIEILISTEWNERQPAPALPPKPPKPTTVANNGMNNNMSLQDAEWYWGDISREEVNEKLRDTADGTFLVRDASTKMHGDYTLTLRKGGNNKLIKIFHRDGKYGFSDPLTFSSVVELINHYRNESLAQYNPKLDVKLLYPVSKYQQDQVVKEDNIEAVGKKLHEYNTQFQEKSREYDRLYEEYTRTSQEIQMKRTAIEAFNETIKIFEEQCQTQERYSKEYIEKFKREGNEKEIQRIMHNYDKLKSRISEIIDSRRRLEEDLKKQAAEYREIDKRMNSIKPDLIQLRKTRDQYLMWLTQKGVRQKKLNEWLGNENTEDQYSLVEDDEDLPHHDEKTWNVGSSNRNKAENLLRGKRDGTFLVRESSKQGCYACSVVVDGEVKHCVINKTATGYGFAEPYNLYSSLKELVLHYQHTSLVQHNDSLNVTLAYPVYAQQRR
Sequence (O00329 whole entry): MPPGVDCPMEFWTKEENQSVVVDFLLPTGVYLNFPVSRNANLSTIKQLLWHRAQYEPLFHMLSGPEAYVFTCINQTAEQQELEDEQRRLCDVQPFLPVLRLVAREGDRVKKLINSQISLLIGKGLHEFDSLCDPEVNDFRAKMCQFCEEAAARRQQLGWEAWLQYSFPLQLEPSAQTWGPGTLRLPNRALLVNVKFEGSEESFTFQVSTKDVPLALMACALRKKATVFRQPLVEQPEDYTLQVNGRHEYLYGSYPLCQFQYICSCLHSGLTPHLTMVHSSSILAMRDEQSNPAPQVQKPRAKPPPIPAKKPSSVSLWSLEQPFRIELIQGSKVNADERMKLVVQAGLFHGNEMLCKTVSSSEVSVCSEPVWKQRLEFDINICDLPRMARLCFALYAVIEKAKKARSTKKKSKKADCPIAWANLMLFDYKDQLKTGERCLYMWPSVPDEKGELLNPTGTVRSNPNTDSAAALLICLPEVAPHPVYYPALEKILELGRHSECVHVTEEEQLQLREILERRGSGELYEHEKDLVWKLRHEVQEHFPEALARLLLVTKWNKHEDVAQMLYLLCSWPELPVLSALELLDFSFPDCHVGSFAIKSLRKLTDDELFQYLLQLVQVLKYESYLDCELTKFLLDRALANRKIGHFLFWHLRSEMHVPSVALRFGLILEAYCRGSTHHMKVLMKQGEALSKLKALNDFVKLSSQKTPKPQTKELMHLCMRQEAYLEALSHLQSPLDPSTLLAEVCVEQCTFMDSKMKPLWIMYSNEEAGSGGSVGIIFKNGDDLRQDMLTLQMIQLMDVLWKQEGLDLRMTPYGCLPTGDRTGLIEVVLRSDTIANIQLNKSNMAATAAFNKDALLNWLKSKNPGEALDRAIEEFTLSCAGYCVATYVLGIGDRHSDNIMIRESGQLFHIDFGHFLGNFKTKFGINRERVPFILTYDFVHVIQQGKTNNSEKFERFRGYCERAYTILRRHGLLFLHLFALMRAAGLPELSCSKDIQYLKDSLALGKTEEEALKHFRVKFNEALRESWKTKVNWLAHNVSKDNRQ
Test: Inhibition of His-tagged recombinant human PI3K p110delta/p85alpha using lipid substrate incubated for 2 hrs by ADP-Glo assay
pIC50: −log10 of the molar value.
measurement.type: pIC50

Completed entries (count: 4):
Which value of pIC50 has been reported for CC(C1=Nc2cccc(F)c2S(=O)(=O)N1c1ccccc1)n1cnc2c(N)ncnc21 (stereo not given) in the records?
7.27

# input compound: CC(C1=Nc2ccccc2S(=O)(=O)N1c1cccnc1)n1cnc2c(N)ncnc21 (stereo not given) ; wanted: its pIC50
6.21

// returns reported pIC50 for input CCC(Nc1ncnc2[nH]cnc12)C1=Nc2cccc(Cl)c2S(=O)(=O)N1c1ccccc1 (stereo not given)
7.09

Suppose we examine the compound CCC(Nc1nc(F)nc2[nH]cnc12)C1=Nc2cccc(F)c2S(=O)(=O)N1c1ccccc1 (stereo not given) ; what pIC50 value has been reported?
6.42

I. CC(Nc1ncnc2[nH]cnc12)C1=Nc2cccc(Cl)c2S(=O)(=O)N1c1ccccc1 (stereo not given)
II. CC(Nc1nc(F)nc2[nH]cnc12)C1=Nc2ccccc2S(=O)(=O)N1c1ccccc1 (stereo not given)
Which has the smaller recorded pIC50, I or II ? Indicate your choice by writing its label.
II
(II: 7.04, I: 8.01)

====

Molecular target: PI3-kinase p110-alpha/p85-alpha (Homo sapiens, UniProt P42336)
Sequence (P27986 whole entry): as the sequence (P27986 whole entry) above
Sequence (P42336 whole entry): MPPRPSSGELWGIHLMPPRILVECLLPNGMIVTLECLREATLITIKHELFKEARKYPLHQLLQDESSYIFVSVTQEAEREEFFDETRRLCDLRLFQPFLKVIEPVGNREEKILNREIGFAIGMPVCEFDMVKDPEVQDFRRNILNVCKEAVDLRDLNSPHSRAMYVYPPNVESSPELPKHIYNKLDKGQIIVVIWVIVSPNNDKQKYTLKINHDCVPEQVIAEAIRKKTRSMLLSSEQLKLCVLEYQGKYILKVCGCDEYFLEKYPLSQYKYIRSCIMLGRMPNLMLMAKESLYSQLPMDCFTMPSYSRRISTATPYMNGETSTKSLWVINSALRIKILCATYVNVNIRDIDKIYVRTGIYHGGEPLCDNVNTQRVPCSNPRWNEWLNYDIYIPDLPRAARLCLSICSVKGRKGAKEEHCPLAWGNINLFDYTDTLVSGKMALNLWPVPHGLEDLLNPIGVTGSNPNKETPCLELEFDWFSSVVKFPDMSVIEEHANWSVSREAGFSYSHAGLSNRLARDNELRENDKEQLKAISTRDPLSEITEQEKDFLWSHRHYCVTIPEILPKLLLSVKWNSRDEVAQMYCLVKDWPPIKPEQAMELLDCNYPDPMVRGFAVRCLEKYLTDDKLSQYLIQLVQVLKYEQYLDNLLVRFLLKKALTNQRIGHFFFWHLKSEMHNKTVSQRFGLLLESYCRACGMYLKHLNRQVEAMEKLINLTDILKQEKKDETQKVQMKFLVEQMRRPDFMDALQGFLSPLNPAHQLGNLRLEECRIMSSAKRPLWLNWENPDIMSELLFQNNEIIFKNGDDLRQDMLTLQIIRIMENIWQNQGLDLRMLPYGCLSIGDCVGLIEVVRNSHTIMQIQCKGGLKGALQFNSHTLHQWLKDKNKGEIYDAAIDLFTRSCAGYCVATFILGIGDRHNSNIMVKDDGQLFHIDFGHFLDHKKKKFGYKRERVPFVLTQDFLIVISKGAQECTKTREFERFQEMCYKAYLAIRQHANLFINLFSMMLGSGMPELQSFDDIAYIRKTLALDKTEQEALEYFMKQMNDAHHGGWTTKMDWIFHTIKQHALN
Assay: Inhibition of His-tagged recombinant human full length PI3K p110alpha/p85alpha expressed in baculovirus expression system using lipid substrate incubated for 60 mins by kinase-Glo reagent based luminescence assay
measurement.type: IC50 (µM)

a. C[C@H](Nc1ncnc2[nH]cnc12)C1=Nc2cccc(Cl)c2S(=O)(=O)N1c1ccccc1
b. C[C@H](Nc1ncnc(N)c1C#N)C1=Nc2cccc(Cl)c2S(=O)(=O)N1c1ccccc1
Consider entries a and b . Which has the numerically lower IC50? Answer with the label corresponding to your selection.
b
(b: 0.996 µM, a: 3.64 µM)

====

Target: PI3-kinase p110-delta/p85-alpha (Homo sapiens)
Assay: Inhibition of His-tagged recombinant human PI3K p110delta/p85alpha using lipid substrate incubated for 2 hrs by ADP-Glo assay
pIC50: −log10 of the molar value.
measurement.type: pIC50

// worked examples, pIC50 included
Which pIC50 is listed for CCC(Nc1ncnc2[nH]cnc12)C1=Nc2ccccc2S(=O)(=O)N1c1ccc(OC)c(OC)c1 (stereo not given) ?
< 5.52

# get_value(readout='pIC50', item= `C[C@H](Nc1ncnc(N)c1C#N)C1=Nc2cccc(Cl)c2S(=O)(=O)N1c1ccccc1` )
> 9.49

// pIC50 lookup, key: CCC(Nc1ncnc2[nH]cnc12)C1=Nc2ccccc2S(=O)(=O)N1c1ccc(OC(F)(F)F)cc1 (stereo not given)
< 5.52

Return reported pIC50; argument: CCC(C1=Nc2ccccc2S(=O)(=O)N1c1ccc(OC(F)(F)F)cc1)n1cnc2c(N)ncnc21 (stereo not given)
< 5.52

Next:
Reported pIC50 for CCC(C1=Nc2ccccc2S(=O)(=O)N1c1ccc(F)cc1)n1cnc2c(N)ncnc21 (stereo not given) : what is it?
< 5.52

====

Molecular target: PI3-kinase p110-delta/p85-alpha (Homo sapiens, UniProt O00329)
Experiment: Inhibition of His-tagged recombinant human PI3K p110delta/p85alpha using lipid substrate incubated for 2 hrs by ADP-Glo assay
pIC50: −log10 of the molar value.
measurement.type: pIC50

P. CCC(Nc1ncnc(N)c1C#N)C1=Nc2cccc(F)c2S(=O)(=O)N1c1ccccc1 (centres undefined)
Q. C[C@@H](Nc1ncnc(N)c1C#N)C1=Nc2cccc(Cl)c2S(=O)(=O)N1c1ccccc1
R. CC(Nc1ncnc(N)c1C#N)C1=Nc2ccccc2S(=O)(=O)N1c1ccccc1 (centres undefined)
Order required: smallest reported pIC50 first, largest last, for all compounds above. A ranking is expressed here by listing the labels in the requested order.
P, R, Q
(P: 6.85, R: 7.82, Q: 8.15)
